biological target: GLP-1 Receptor (Homo sapiens, UniProt P43220); experiment: GLP-1R agonist cAMP stimulation assay (HEK293/GLP1R/CRE-LUC cells, Cisbio cAMP dynamic 2 kit); details: HEK293/CRE-Luc cells stably expressing the GLP-1 Receptor, 30 min at 37° C.
Sequence (P43220 24-463, species assumed): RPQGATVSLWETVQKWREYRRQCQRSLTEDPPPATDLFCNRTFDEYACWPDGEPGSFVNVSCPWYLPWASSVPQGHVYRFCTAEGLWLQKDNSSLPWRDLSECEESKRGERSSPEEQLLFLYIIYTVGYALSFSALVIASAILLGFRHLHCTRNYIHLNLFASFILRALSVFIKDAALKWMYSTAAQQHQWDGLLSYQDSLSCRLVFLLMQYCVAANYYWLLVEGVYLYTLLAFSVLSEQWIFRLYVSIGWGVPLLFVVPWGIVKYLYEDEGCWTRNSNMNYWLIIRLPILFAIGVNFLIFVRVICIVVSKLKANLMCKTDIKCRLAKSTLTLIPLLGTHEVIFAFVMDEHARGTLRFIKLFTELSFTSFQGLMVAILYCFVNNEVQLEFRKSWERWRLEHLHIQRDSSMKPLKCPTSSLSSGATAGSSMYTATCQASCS
pEC50: −log10 of the molar value.
Endpoint name: pEC50

Compound | Endpoint name | Endpoint result
C[C@]1(c2ccc(Cl)cc2F)Oc2cccc(C3=CCN(Cc4nc5cc(-c6nnc(C(F)(F)F)[nH]6)nnc5n4C[C@@H]4CCO4)CC3)c2O1 | pEC50 | > 9.00
FC(F)Oc1ccc(COc2cccc(C3CCN(Cc4nc5cc(-c6nnc(C(F)(F)F)[nH]6)ncc5n4C[C@@H]4CCO4)CC3)n2)cn1 | pEC50 | > 9.00
Fc1cc(Cl)ccc1COc1cccc([C@H]2CCN(Cc3nc4cc(-c5nnc(C(F)(F)F)[nH]5)ncc4n3C[C@@H]3CCO3)C[C@@H]2F)n1 (single isomer, unassigned) | pEC50 | > 9.00

----------
biological target: GLP-1 Receptor (Homo sapiens); experiment: GLP-1R agonist cAMP stimulation assay (HEK293/GLP1R/CRE-LUC cells, Cisbio cAMP dynamic 2 kit); settings: HEK293/CRE-Luc cells stably expressing the GLP-1 Receptor, 30 min at 37° C.
# key: entry, value: EC50

Cpd smiles | EC50
Cc1c(Cl)ccc(COc2cccc(C3CCN(Cc4nc5cc(-c6nnc(C(F)(F)F)[nH]6)ncc5n4C[C@@H]4CCO4)CC3)n2)c1F | < 1 nM
O=C1CN(Cc2nc3cc(-c4nnc(C(F)(F)F)[nH]4)ncc3n2C[C@@H]2CCO2)CCN1c1ccc(F)c(OCc2ccc(Cl)cc2F)c1 | < 1 nM
Cc1ccc(COc2cccc(C3CCN(Cc4nc5cc(-c6nnc(C(F)(F)F)[nH]6)ncc5n4C[C@@H]4CCO4)CC3)n2)c(OC(F)F)n1 | < 1 nM
FC1(F)Oc2cccc(COc3cccc(C4CCN(Cc5nc6cc(-c7nnc(C(F)(F)F)[nH]7)ncc6n5C[C@@H]5CCO5)CC4)n3)c2O1 | < 1 nM
O=c1[nH]c(-c2cc(F)c3c(c2)nc(CN2CCC(c4cccc(OCc5ccc(Cl)cc5F)n4)CC2)n3C[C@@H]2CCO2)no1 | 1 to 100 nM
Cc1nnc(-c2cc(F)c3c(c2)nc(CN2CCC(c4cccc5c4O[C@@](C)(c4ccc(Cl)cc4F)O5)CC2)n3C[C@@H]2CCO2)[nH]1 | < 1 nM

----------
biological target: GLP-1 Receptor (Homo sapiens); assay: GLP-1R agonist cAMP stimulation assay (HEK293/GLP1R/CRE-LUC cells, Cisbio cAMP dynamic 2 kit); details: HEK293/CRE-Luc cells stably expressing the GLP-1 Receptor, 30 min at 37° C.
# key: entry, value: EC50

Compound | EC50
O[C@@H]1CN(Cc2nc3cc(-c4nnc(C(F)(F)F)[nH]4)ncc3n2C[C@@H]2CCO2)CC[C@H]1c1cccc(OCc2ccc(Cl)cc2F)n1 | < 1 nM
CC1(c2ccc(F)cc2F)Oc2cccc(C3CCN(Cc4nc5cc(-c6nnc(C(F)(F)F)[nH]6)cnc5n4C[C@@H]4CCO4)CC3)c2O1 (stereo partly drawn) | < 1 nM
FC(F)Oc1cccc(COc2cccc(C3CCN(Cc4nc5cc(-c6nnc(C(F)(F)F)[nH]6)ncc5n4C[C@@H]4CCO4)CC3)n2)n1 | < 1 nM
C[C@]1(c2ccc(Cl)cc2F)Oc2cccc(C3CCN(Cc4nc5cc(C(=O)NCC(F)(F)F)ncc5n4C[C@@H]4CCO4)CC3)c2O1 | < 1 nM
Cc1ccc(C2(C)Oc3cccc(C4CCN(Cc5nc6cc(-c7nnc(C(F)(F)F)[nH]7)cnc6n5C[C@@H]5CCO5)CC4)c3O2)cn1 (stereo partly drawn) | < 1 nM
[2H]C1([2H])Oc2cccc(COc3cccc(C4CCN(Cc5nc6cc(-c7nnc(C(F)(F)F)[nH]7)ncc6n5C[C@@H]5CCO5)CC4)n3)c2O1 | < 1 nM
Cc1nnc(-c2cc(F)c3c(c2)nc(CN2CCC(c4cccc5c4O[C@@](C)(c4ccc(Cl)cn4)O5)CC2)n3C[C@@H]2CCO2)[nH]1 | < 1 nM
Fc1cn(C2CC2)nc1COc1cccc(C2CCN(Cc3nc4cc(-c5nnc(C(F)(F)F)[nH]5)ncc4n3C[C@@H]3CCO3)CC2)n1 | 1 to 100 nM
O=C(O)c1cc2nc(CN3CCC(c4cccc(OCc5ccc(Cl)cc5F)n4)CC3)n(C[C@@H]3CCO3)c2cn1 | < 1 nM
Fc1cc(Cl)ccc1COc1nc(C2CCN(Cc3nc4cc(-c5nnc(C(F)(F)F)[nH]5)ncc4n3C[C@@H]3CCO3)CC2)c(F)cc1F | < 1 nM
Fc1ccc(COc2cccc(C3CCN(Cc4nc5cc(-c6nnc(C(F)(F)F)[nH]6)ncc5n4C[C@@H]4CCO4)CC3)n2)nc1OC(F)F | < 1 nM
C[C@]1(c2ccc(Cl)cn2)Oc2cccc(C3CCN(Cc4nc5cc(-c6noc(=O)[nH]6)cc(F)c5n4C[C@@H]4CCO4)CC3)c2O1 | 1 to 100 nM
FC(F)(F)Oc1cccc(COc2cccc(C3CCN(Cc4nc5cc(-c6nnc(C(F)(F)F)[nH]6)ncc5n4C[C@@H]4CCO4)CC3)n2)n1 | < 1 nM
C[C@]1(c2ccc(Cl)cc2F)Oc2cccc(C3CCN(Cc4nc5cc(C(=O)O)ncc5n4C[C@@H]4CCO4)CC3)c2O1 | < 1 nM
CC1(c2ccc(Cl)cc2F)Oc2cccc(C3=CCN(Cc4nc5cc(-c6noc(=O)[nH]6)cc(F)c5n4C[C@@H]4CCO4)CC3)c2O1 (stereo partly drawn) | 1 to 100 nM
O=C1CN(Cc2nc3cc(-c4nnc(C(F)(F)F)[nH]4)ncc3n2C[C@@H]2CCO2)CCN1c1ccc(F)c(OCc2ccc(Cl)cc2F)n1 | < 1 nM
C[C@]1(c2ccc(Cl)cn2)Oc2cccc([C@@H]3CCN(Cc4nc5cc(-c6nnc(C(F)(F)F)[nH]6)cnc5n4C[C@@H]4CCO4)C[C@H]3F)c2O1 (single isomer, unassigned) | < 1 nM
FC(F)(F)Oc1cccc(COc2cccc(C3CCN(Cc4nc5cc(-c6nnc(C(F)(F)F)[nH]6)ncc5n4C[C@@H]4CCO4)CC3)n2)c1 | < 1 nM
Fc1cc(Cl)ccc1COc1ccc(F)c(C2CCN(Cc3nc4cc(-c5nnc(C(F)(F)F)[nH]5)ncc4n3C[C@@H]3CCO3)CC2)n1 | < 1 nM
Cc1c(F)ccc(COc2cccc(C3CCN(Cc4nc5cc(-c6nnc(C(F)(F)F)[nH]6)ncc5n4C[C@@H]4CCO4)CC3)n2)c1F | < 1 nM
Cc1ccc(C2(C)Oc3cccc(C4CCN(Cc5nc6cc(-c7nnc(C(F)(F)F)[nH]7)ncc6n5C[C@@H]5CCO5)CC4)c3O2)cn1 (stereo partly drawn) | < 1 nM
C[C@]1(c2ccc(Cl)cc2F)Oc2cccc(C3=CCN(Cc4nc5cc(-c6nnc(C(F)(F)F)[nH]6)cnc5n4C[C@@H]4CCO4)CC3)c2O1 | < 1 nM
Cc1ccc(COc2cccc(C3CCN(Cc4nc5cc(-c6nnc(C(F)(F)F)[nH]6)ncc5n4C[C@@H]4CCO4)CC3)n2)nc1OC(F)F | < 1 nM
O=c1[nH]c(-c2ccc3c(nc(CN4CCC(c5cccc(OCc6ccc(Cl)cc6F)n5)CC4)n3C[C@@H]3CCO3)c2F)no1 | < 1 nM
